TEST SYSTEM: IDH1 R132H (Homo sapiens, UniProt O75874, R132H)
Sequence (O75874 whole entry R132H): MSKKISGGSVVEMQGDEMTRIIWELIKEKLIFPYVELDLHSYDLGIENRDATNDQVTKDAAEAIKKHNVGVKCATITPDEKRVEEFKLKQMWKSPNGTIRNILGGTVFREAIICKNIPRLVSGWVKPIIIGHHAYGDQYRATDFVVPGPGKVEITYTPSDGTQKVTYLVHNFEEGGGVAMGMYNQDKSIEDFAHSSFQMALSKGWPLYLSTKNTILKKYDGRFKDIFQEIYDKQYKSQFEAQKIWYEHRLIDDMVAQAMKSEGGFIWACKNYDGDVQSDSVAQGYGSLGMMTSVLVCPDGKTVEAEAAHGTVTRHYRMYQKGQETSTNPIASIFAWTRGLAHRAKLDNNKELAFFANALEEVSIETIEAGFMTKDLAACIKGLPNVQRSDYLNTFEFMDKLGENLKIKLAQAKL
ASSAY OVERVIEW: IDH1 R132H enzymatic assay (NADPH depletion coupled to diaphorase/resazurin)
Type: biochemical
MEASUREMENT CONTEXT: enzymatic inhibition, IDH1 R132H
// IC50 lookup, one value per entry

Before answering, review these 3 worked examples.
SMILES STRUCTURE: COc1ccc(-n2c3c(cc(-c4nc(-c5ccc(Cl)cc5)cs4)c2=O)C(=O)CC(C)(C)C3)c(OC)c1
IC50: > 20 µM

SMILES STRUCTURE: CCc1cccc(CC)c1-n1c(C2CCCCC2)c(C(=O)N2CCNCC2)cc(-c2nc(-c3ccc(Cl)cc3)cs2)c1=O
IC50: 1 to 5 µM

SMILES STRUCTURE: CCc1cccc(CC)c1-n1c(C=C(C)C)c(C(=O)N2CCNCC2)cc(-c2nc(-c3ccc(C(F)F)cn3)cs2)c1=O
IC50: < 0.3 µM

Task item: Please report IC50 for the following compound: CC1(C)CC(=O)c2cc(-c3nc(-c4ccc(Cl)cc4)cs3)c(=O)n(-c3cscc3C(N)=O)c2C1
Reply: 5 to 20 µM

###

TEST SYSTEM: IDH1 R132C (Homo sapiens, UniProt O75874, R132C)
Sequence (O75874 whole entry R132C): as the sequence (O75874 whole entry R132H) above, with H132C counted along it
ASSAY OVERVIEW: IDH1 R132C enzymatic assay (NADPH depletion coupled to diaphorase/resazurin)
Assay type: biochemical
MEASUREMENT CONTEXT: IDH1 R132C enzymatic inhibition, IC50 class
ENDPOINT: IC50

Before answering, review these 5 worked examples.
MOLECULE: CCc1cccc(CC)c1-n1c(CC2CCNC2)c(C(=O)N2CCNCC2)cc(-c2nc(-c3ccc(Cl)cc3)cs2)c1=O (stereo not shown)
IC50: 5000 to 20000 nM

MOLECULE: CCc1cccc(CC)c1-n1c(CC(C)C)c(C(=O)N2CCNCC2CO)cc(-c2nc(-c3ccc(Cl)cc3)cs2)c1=O (stereo not shown)
IC50: < 300 nM

MOLECULE: CCc1cccc(CC)c1-n1c(C)c(C(=O)N2CCN[C@@H](C(=O)O)C2)cc(-c2nc(-c3ccc(Cl)cc3)cs2)c1=O
IC50: 1000 to 5000 nM

MOLECULE: CCc1cccc(CC)c1-n1c(CC(C)C)c(C(=O)N2CCNC(C(N)=O)C2)cc(-c2nc(-c3ccc(Cl)cc3)cs2)c1=O (stereo not shown)
IC50: < 300 nM

MOLECULE: CCc1cccc(CC)c1-n1c(C(C)C)c(C(=O)NC2CCNCC2)cc(-c2nc(-c3ccc(Cl)cc3)cs2)c1=O
IC50: 1000 to 5000 nM

Task item: Please report IC50 for the following molecule: COc1ccccc1Cn1c2c(cc(-c3nc(-c4ccc(Cl)cc4)cs3)c1=O)C(=O)CC(C)(C)C2
Reply: 1000 to 5000 nM

Task item: Please report IC50 for the following molecule: COc1ccc(OC)c(-n2c(C=C(C)C)c(C(=O)N3CCNCC3)cc(-c3nc(-c4ccc(Cl)cc4)cs3)c2=O)c1
Reply: < 300 nM

###

TEST SYSTEM: IDH1 R132H (Homo sapiens, UniProt O75874, R132H)
ASSAY OVERVIEW: IDH1 R132H enzymatic assay (NADPH depletion coupled to diaphorase/resazurin)
Format: biochemical
MEASUREMENT CONTEXT: IDH1 R132H enzymatic inhibition, IC50 class
ENDPOINT: IC50

COMPOUND: CCc1cccc(CC)c1-n1c2c(cc(-c3nc(-c4cnn(C)c4)c(C)s3)c1=O)C(=O)CC(C)(C)C2
MEASUREMENT: 1000 to 5000 nM
--
COMPOUND: CCc1cccc(CC)c1-n1c(C=C(C)C)c(C(=O)N2C[C@H]3CC[C@@H](C2)N3)cc(-c2nc(-c3ccc(Cl)cc3)cs2)c1=O
MEASUREMENT: < 300 nM
--
COMPOUND: CCc1cccc(CC)c1-n1c(C=C(C)C)c(C(=O)N2CCNC(C)C2C)cc(-c2nc(-c3ccc(Cl)cc3)cs2)c1=O (centres unmarked)
MEASUREMENT: < 300 nM
--
COMPOUND: CCc1cccc(CC)c1-n1c(C)c(C(=O)NC(C)C)cc(-c2nc(-c3ccc(Cl)cc3)cs2)c1=O
MEASUREMENT: 1000 to 5000 nM
--
COMPOUND: CCOc1ncccc1-n1c(C=C(C)C)c(C(=O)N2CCNCC2)cc(-c2nc(-c3ccc(Cl)cc3)cs2)c1=O
MEASUREMENT: < 300 nM

Task item: Please report IC50 for the following compound: O=C1CCCc2c1cc(-c1nc(-c3ccc(Cl)cc3)cs1)c(=O)n2-c1ccccc1CO
Reply: > 20000 nM

Task item: Please report IC50 for the following compound: Cc1ccc([N+](=O)[O-])cc1-n1c2c(cc(-c3nc(-c4ccc(Cl)cc4)cs3)c1=O)C(=O)CC(C)(C)C2
Reply: 1000 to 5000 nM

Task item: Please report IC50 for the following compound: CCc1cccc(CC)c1-n1c(C)c(C(=O)N(C)CCN)cc(-c2nc(-c3ccc(Cl)cc3)cs2)c1=O
Reply: 1000 to 5000 nM

Task item: Please report IC50 for the following compound: CCOc1ccc(OCC)c(-n2c(C=C(C)C)c(C(=O)N3CCNCC3)cc(-c3nc(-c4ccc(Cl)cc4)cs3)c2=O)c1
Reply: < 300 nM

###

// pIC50 lookup, one value per entry
TEST SYSTEM: IDH1 R132C (Homo sapiens, UniProt O75874, R132C)
ASSAY OVERVIEW: IDH1 R132C enzymatic assay (NADPH depletion coupled to diaphorase/resazurin)
Assay type: biochemical
MEASUREMENT CONTEXT: enzymatic inhibition, IDH1 R132C
pIC50: −log10 of the molar value.

Before answering, review these 3 worked examples.
COMPOUND: CCc1cccc(CC)c1-n1c2c(cc(-c3nc(-c4ccc(Cl)cc4)cs3)c1=O)C(=O)OC(C)(C)C2 [Compound 475]
pIC50: 6.00 to 6.52
//
COMPOUND: CCc1cccc(CC)c1-n1c(CC(C)C)c(C(=O)N2CCNCC2)cc(-c2nc(-c3ccc(Cl)cc3)c(Br)s2)c1=O [Compound 601]
pIC50: > 6.52
//
COMPOUND: CCc1cccc(C)c1-n1c2c(cc(-c3nc(-c4ccccc4)cs3)c1=O)C(=O)CCC2 [Compound 543]
pIC50: 5.30 to 6.00

Task item: Please report pIC50 for the following compound: CCOc1ncc(Cl)cc1-n1c(C=C(C)C)c(C(=O)N2CCNCC2)cc(-c2nc(-c3ccc(C(F)F)cc3)cs2)c1=O [Compound 407]
Reply: 6.00 to 6.52

Task item: Please report pIC50 for the following compound: CCc1cccc(CC)c1-n1c(C=C(C)C)c(C(=O)N2CCNC(=O)C2)cc(-c2ccn(-c3ccc(Cl)cc3)n2)c1=O [Compound 593]
Reply: > 6.52

Task item: Please report pIC50 for the following compound: CCc1ccc(OC)cc1-n1c(C=C(C)C)c(C(=O)N2CCNCC2)cc(-c2nc(-c3ccc(Cl)cc3)cs2)c1=O [Compound 539]
Reply: > 6.52

Task item: Please report pIC50 for the following compound: Cc1c(CO)cccc1-n1c2c(cc(-c3nc(-c4ccc(Cl)nc4)cs3)c1=O)C(=O)CCC2 [Compound 486]
Reply: 4.70 to 5.30

###

TEST SYSTEM: IDH1 R132H (Homo sapiens, UniProt O75874, R132H)
ASSAY OVERVIEW: IDH1 R132H enzymatic assay (NADPH depletion coupled to diaphorase/resazurin)
Assay type: biochemical
MEASUREMENT CONTEXT: IDH1 R132H enzymatic inhibition, IC50 class
ENDPOINT: IC50

Before answering, review these 2 worked examples.
MOLECULE: CCc1cccc(CC)c1-n1c(C=C(C)C)c(C(=O)N2CCC3(CCNC3)C2)cc(-c2nc(-c3ccc(Cl)cc3)cs2)c1=O (stereo not shown) [Compound 320]
IC50: 300 to 1000 nM

MOLECULE: CCc1cccc(CC)c1-n1c(C)c(C(=O)NC[C@@H](C)O)cc(-c2nc(-c3ccc(Cl)cc3)cs2)c1=O
IC50: 1000 to 5000 nM

Task item: Provide IC50, system IDH1 R132H (Homo sapiens, UniProt O75874, R132H), entry CCc1cccc(CC)c1-n1c(C)c(C(=O)N2CC(O)C2)cc(-c2nc(-c3ccc(Cl)cc3)cs2)c1=O
Reply: 1000 to 5000 nM

Task item: Provide IC50, system IDH1 R132H (Homo sapiens, UniProt O75874, R132H), entry CCc1cccc(CC)c1-n1c(C(C)C)c(C(=O)N2CCN[C@@H](CO)C2)cc(-c2nc(-c3ccc(Cl)cc3)cs2)c1=O
Reply: 300 to 1000 nM

meta.source: patent US10703746B2
